Target: Somatostatin receptor type 5 (Homo sapiens, UniProt P35346)
Sequence (P35346 whole entry): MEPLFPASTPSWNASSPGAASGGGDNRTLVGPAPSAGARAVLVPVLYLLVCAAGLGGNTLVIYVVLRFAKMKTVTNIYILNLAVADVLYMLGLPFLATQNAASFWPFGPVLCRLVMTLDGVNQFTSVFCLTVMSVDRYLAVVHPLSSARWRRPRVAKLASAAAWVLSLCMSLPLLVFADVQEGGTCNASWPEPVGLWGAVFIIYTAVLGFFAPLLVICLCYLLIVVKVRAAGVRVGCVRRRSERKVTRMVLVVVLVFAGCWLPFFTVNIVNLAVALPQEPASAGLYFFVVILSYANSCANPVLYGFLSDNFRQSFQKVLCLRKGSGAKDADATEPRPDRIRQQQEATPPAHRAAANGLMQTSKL
Where a SMILES comes first, the peptide text is derived from it. [ ]: non-standard residue; d: D form. d1Nal = N[C@H](Cc1cccc2ccccc12)C(=O)O; Ahp = NCCCCCCC(=O)O
Flag rule - Ki less than 10 nM flags satisfied; the remaining entries get not satisfied.

Input CC(C)[C@H](NC(=O)[C@H](CCCCN)NC(=O)[C@@H](Cc1c[nH]c2ccccc12)NC(=O)[C@H](Cc1ccc(O)cc1)NC(=O)[C@H](Cc1ccccc1)NC(=O)[C@H](N)Cc1ccccc1)C(=O)N[C@@H](Cc1ccccc1)C(=O)N[C@H](Cc1cccc2ccccc12)C(N)=O [BIM 23056] (H-[dF]FY[dW]KVF[d1Nal]-NH2) ; condition: Ki strictly below 10 nM. Does it hold?
not satisfied

Input C[C@@H](O)[C@@H]1NC(=O)[C@H](CCCCN)NC(=O)[C@@H](Cc2c[nH]c3ccccc23)NC(=O)[C@H](Cc2c[nH]c3ccccc23)NC(=O)[C@H](Cc2ccccc2)NC(=O)CCCCCCNC(=O)[C@H](Cc2ccccc2)NC1=O [L-362855] (cyclo([Ahp]FW[dW]KTF)) ; condition: Ki strictly below 10 nM. Does it hold?
satisfied

Input CC(O)[C@@H](NC(=O)[C@H](CCCCN)NC(=O)[C@@H](Cc1c[nH]c2ccccc12)NC(=O)[C@H](Cc1ccccc1)NC(=O)C(Cc1ccccc1)NC(=O)C(N)CS)C(=O)NC(Cc1ccccc1)C(=O)NC(CS)C(N)=O (stereo not given in full) ; condition: Ki strictly below 10 nM. Does it hold?
satisfied

Input `CC(C)[C@@H]1NC(=O)[C@H](CCCCN)NC(=O)[C@@H](Cc2c[nH]c3ccccc23)NC(=O)[C@H](Cc2ccc(O)cc2)NC(=O)[C@H](C)N(C)C(=O)[C@H](Cc2ccccc2)NC1=O` ; condition: Ki strictly below 10 nM. Does it hold?
not satisfied

Read the next record carefully.
Input `C[C@@H](O)[C@@H]1NC(=O)[C@H](CCCCN)NC(=O)[C@@H](Cc2c[nH]c3ccccc23)NC(=O)[C@H](Cc2ccccc2)NC(=O)[C@H](Cc2ccccc2)NC(=O)[C@H](N)CSSC[C@H](C(N)=O)NC(=O)[C@H](Cc2ccccc2)NC1=O` ; condition: Ki strictly below 10 nM. Does it hold?
satisfied

---

Where a SMILES comes first, the peptide text is derived from it. Bridges are numbered along the chain shown (N, C = ends). [ ]: non-standard residue; d: D form. Phe(4-CH2NHiPr) = CC(C)NCc1ccc(C[C@H](N)C(=O)O)cc1; d1Nal = N[C@H](Cc1cccc2ccccc12)C(=O)O; Ahp = NCCCCCCC(=O)O
The reader will find Ki measurements below, all made with Somatostatin receptor type 4 (Homo sapiens).
Sequence (P31391 whole entry): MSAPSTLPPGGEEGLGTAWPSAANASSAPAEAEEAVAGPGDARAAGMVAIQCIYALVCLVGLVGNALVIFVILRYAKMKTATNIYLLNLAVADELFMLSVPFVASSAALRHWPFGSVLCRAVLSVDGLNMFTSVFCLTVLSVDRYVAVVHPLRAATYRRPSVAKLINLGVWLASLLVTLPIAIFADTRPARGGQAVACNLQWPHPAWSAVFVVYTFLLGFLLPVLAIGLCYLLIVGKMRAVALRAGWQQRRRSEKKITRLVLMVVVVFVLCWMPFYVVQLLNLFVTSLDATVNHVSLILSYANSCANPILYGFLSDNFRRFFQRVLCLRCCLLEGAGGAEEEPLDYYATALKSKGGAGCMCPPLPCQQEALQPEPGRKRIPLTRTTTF
One number for each entry, in nM.

Identify measured Ki corresponding to CC(C)[C@@H]1NC(=O)[C@H](CCCCN)NC(=O)[C@@H](Cc2c[nH]c3ccccc23)NC(=O)[C@H](Cc2ccc(O)cc2)NC(=O)[C@@H](NC(=O)[C@H](N)Cc2ccccc2)CSSC[C@@H](C(=O)N[C@@H](Cc2c[nH]c3ccccc23)C(N)=O)NC1=O [CAS_71306] (H-[dF]CY[dW]KVCW-NH2; disulfide 2-7)
351

Identify measured Ki corresponding to CC(O)[C@@H](NC(=O)[C@H](CCCCN)NC(=O)[C@@H](Cc1c[nH]c2ccccc12)NC(=O)[C@H](Cc1ccccc1)NC(=O)C(Cc1ccccc1)NC(=O)C(N)CS)C(=O)NC(Cc1ccccc1)C(=O)NC(CS)C(N)=O (stereo not given in full)
55.3

Hi there! I need Ki for each item below, if you can.
1. CC(C)[C@H](NC(=O)[C@H](CCCCN)NC(=O)[C@@H](Cc1c[nH]c2ccccc12)NC(=O)[C@H](Cc1ccc(O)cc1)NC(=O)[C@H](Cc1ccccc1)NC(=O)[C@H](N)Cc1ccccc1)C(=O)N[C@@H](Cc1ccccc1)C(=O)N[C@H](Cc1cccc2ccccc12)C(N)=O [BIM 23056] (H-[dF]FY[dW]KVF[d1Nal]-NH2)
2. C[C@@H](O)[C@@H]1NC(=O)[C@H](CCCCN)NC(=O)[C@@H](Cc2c[nH]c3ccccc23)NC(=O)[C@H](Cc2c[nH]c3ccccc23)NC(=O)[C@H](Cc2ccccc2)NC(=O)CCCCCCNC(=O)[C@H](Cc2ccccc2)NC1=O [L-362855] (cyclo([Ahp]FW[dW]KTF))
3. CC(C)NCc1ccc(C[C@@H]2NC(=O)[C@@H](Cc3c[nH]c4ccccc34)NC(=O)[C@H](Cc3ccccc3)NC(=O)[C@H](Cc3ccccc3)NC(=O)[C@H](CCCCN)NC(=O)[C@@H](N)CSSC[C@@H](C(=O)O)NC(=O)[C@H](CO)NC(=O)[C@H]([C@@H](C)O)NC(=O)[C@H](Cc3ccccc3)NC(=O)[C@H]([C@@H](C)O)NC2=O)cc1 [CH-275] (H-CKFF[dW][Phe(4-CH2NHiPr)]TFTSC-OH; disulfide 1-11)

174
467
874

---

Target: Somatostatin receptor type 5 (Rattus norvegicus)
Sequence (P30938 whole entry): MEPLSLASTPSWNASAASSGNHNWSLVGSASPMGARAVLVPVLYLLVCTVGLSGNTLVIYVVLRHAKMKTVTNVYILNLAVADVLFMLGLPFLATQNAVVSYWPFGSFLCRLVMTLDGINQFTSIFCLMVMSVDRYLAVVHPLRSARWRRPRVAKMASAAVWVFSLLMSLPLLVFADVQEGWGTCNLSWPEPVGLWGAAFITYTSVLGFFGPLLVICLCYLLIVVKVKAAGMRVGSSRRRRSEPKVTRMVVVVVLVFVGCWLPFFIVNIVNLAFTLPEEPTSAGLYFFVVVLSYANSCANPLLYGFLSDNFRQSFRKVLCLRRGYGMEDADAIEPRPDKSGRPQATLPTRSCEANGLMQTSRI
Where a SMILES comes first, the peptide text is derived from it. Bridges are numbered along the chain shown (N, C = ends).
quantity: Ki (nM)
Answers are plain numbers, in nM.

Record excerpt, results attached:
Identify measured Ki corresponding to CC(C)C1NC(=O)C(CCCCN)NC(=O)C(Cc2c[nH]c3ccccc23)NC(=O)C(Cc2ccc(O)cc2)NC(=O)C(NC(=O)C(N)Cc2ccccc2)CSSCC(C(=O)NC(Cc2c[nH]c3ccccc23)C(N)=O)NC1=O (stereo not drawn) [CAS_71306] (H-FCYWKVCW-NH2; disulfide 2-7; configuration not given here)
6.8

Identify measured Ki corresponding to CC(O)[C@@H](NC(=O)[C@H](CCCCN)NC(=O)[C@@H](Cc1c[nH]c2ccccc12)NC(=O)[C@H](Cc1ccccc1)NC(=O)C(Cc1ccccc1)NC(=O)C(N)CS)C(=O)NC(Cc1ccccc1)C(=O)NC(CS)C(N)=O (stereo partly drawn)
9.88

Now, please, on to the next compound.
Identify measured Ki corresponding to `CC[C@@H]1NC(=O)[C@H](CCCCN)NC(=O)[C@@H](Cc2c[nH]c3ccccc23)NC(=O)[C@H](Cc2ccc(O)cc2)NC(=O)[C@@H](NC(=O)[C@H](N)Cc2ccccc2)CSSC[C@@H](C(=O)N[C@H](C(N)=O)[C@@H](C)O)NC1=O`
14
